Origin of measurements: ChEMBL document CHEMBL5252613

# Tested system: Bromodomain-containing protein 4 (Homo sapiens, UniProt O60885)
# Protocol summary: Inhibition of BRD4 bromodomain 1/2 (unknown origin) assessed as dissociation constant by DiscoveRx BROMOscan assay
Quantity measured: pKd
Please treat pKd as minus the base-10 logarithm of the molar concentration.

I am curious: what pKd value has been reported for Cc1noc(C)c1-c1ccc2[nH]c(=O)cc(NCc3cc(Cl)cc(Cl)c3)c2c1 ? 6.77

And what about the molecule Cc1noc(C)c1-c1ccc2[nH]c(=O)cc(NCc3ccccc3Br)c2c1 ? 6.68

And what about the molecule Cc1noc(C)c1-c1ccc2[nH]c(=O)cc(-c3ccccc3)c2c1 ? 5.89

And what about the molecule COc1cccc(CNc2cc(=O)[nH]c3ccc(-c4c(C)noc4C)cc23)c1 ? 7.02

And what about the molecule Cc1noc(C)c1-c1ccc2[nH]c(=O)cc(NCc3ccc(Cl)cc3)c2c1 ? 6.68

And what about the molecule Cc1noc(C)c1-c1ccc2[nH]c(=O)cc(NCc3cccc(C(F)(F)F)c3)c2c1 ? 6.66

And what about the molecule Cc1noc(C)c1-c1ccc2[nH]c(=O)cc(N3CCCCC3)c2c1 ? 7.27

And what about the molecule Cc1noc(C)c1-c1ccc2[nH]c(=O)cc(NCc3cccc(Br)c3)c2c1 ? 7.28
